Target: D(2) dopamine receptor (Homo sapiens, UniProt P14416)
Sequence (P14416 whole entry): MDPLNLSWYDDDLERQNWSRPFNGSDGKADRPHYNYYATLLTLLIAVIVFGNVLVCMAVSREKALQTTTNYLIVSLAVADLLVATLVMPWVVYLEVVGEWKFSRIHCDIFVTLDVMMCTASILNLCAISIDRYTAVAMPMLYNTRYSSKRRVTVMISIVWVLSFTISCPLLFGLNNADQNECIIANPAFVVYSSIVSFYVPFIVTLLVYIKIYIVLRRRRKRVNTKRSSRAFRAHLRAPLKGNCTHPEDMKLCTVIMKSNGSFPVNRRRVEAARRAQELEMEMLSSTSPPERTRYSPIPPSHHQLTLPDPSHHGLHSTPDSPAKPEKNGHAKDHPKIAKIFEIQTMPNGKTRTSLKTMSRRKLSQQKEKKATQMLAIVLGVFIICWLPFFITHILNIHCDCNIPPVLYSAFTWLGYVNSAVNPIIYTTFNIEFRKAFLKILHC
assay-metric: Ki

Item: Clc1cccc(N2CCNCC2)c1 [mCPP] | Ki: > 10 µM

---

Biological target: D(1A) dopamine receptor (Homo sapiens)
Sequence (P21728 whole entry): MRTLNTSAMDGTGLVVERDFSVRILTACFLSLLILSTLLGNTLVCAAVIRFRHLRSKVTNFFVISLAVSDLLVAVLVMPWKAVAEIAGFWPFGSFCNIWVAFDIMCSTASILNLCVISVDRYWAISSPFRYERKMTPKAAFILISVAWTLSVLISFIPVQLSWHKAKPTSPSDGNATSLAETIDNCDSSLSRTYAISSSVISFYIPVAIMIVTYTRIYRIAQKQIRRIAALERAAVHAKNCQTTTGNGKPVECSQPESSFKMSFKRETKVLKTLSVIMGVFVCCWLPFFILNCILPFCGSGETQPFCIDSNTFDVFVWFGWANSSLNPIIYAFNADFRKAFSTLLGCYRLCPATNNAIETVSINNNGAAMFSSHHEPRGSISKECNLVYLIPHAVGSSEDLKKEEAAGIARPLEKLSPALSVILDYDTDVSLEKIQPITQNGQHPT
assay-metric: Ki (µM)
Answers are plain numbers, in µM.

Item: Clc1cccc(N2CCNCC2)c1 | Ki: 7

---

Target: 5-hydroxytryptamine receptor 1A (Homo sapiens, UniProt P08908)
Sequence (P08908 whole entry): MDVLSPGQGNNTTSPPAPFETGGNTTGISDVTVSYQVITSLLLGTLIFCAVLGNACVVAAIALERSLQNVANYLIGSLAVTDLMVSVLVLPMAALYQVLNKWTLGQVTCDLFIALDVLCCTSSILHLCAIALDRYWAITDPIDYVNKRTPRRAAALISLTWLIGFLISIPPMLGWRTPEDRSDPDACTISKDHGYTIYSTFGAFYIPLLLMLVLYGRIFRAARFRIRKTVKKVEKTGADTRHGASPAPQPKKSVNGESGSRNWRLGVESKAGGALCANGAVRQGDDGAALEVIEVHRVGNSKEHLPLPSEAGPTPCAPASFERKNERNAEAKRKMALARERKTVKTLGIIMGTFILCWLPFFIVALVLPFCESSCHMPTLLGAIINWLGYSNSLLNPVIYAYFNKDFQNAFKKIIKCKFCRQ
assay-metric: Ki (nM)
Give bare numbers, in nM.

Item: Clc1cccc(N2CCNCC2)c1 | Ki: 400

---

Target: 5-hydroxytryptamine receptor 1D (Homo sapiens, UniProt P28221)
Sequence (P28221 whole entry): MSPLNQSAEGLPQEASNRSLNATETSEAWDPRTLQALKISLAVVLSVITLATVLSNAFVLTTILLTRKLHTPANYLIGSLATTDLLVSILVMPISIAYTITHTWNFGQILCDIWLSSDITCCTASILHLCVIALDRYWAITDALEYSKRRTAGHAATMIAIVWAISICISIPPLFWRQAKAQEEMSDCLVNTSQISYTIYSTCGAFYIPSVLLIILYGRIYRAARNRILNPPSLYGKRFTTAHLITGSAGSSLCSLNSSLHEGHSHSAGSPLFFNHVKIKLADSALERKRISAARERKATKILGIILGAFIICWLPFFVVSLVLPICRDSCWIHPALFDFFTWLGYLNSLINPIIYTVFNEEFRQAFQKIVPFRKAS
assay-metric: Ki (nM)
Give bare numbers, in nM.

Item: Clc1cccc(N2CCNCC2)c1 [mCPP] | Ki: 1300

---

Target: Muscarinic acetylcholine receptor M2 (Homo sapiens, UniProt P08172)
Sequence (P08172 whole entry): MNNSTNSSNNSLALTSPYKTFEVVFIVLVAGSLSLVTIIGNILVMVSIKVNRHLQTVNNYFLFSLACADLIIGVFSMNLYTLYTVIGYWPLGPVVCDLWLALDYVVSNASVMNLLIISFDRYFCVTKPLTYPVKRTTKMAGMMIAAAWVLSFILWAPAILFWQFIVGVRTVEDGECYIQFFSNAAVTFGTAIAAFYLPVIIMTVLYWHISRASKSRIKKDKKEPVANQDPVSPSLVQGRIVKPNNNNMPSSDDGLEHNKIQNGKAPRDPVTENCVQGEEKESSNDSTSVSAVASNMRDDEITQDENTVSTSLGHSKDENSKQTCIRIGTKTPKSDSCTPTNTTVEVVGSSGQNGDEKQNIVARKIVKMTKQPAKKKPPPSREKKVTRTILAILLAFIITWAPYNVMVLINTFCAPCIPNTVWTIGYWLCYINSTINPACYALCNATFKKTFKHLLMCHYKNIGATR
assay-metric: Ki

Item: Clc1cccc(N2CCNCC2)c1 | Ki: > 10 µM

---

Molecular target: Beta-2 adrenergic receptor (Homo sapiens, UniProt P07550)
Sequence (P07550 whole entry): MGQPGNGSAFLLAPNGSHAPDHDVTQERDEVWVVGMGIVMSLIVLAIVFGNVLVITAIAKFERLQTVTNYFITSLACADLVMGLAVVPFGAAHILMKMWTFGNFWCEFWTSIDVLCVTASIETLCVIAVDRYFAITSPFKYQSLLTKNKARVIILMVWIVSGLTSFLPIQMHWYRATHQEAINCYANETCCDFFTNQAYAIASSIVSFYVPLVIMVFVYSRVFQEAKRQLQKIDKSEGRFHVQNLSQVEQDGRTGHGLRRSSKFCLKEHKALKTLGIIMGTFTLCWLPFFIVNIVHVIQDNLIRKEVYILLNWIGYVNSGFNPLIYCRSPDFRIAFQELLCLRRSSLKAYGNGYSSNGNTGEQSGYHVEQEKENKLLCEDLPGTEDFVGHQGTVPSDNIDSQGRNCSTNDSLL
assay-metric: pKi
Numbers only, as −log10 of the molar value.

Item: Clc1cccc(N2CCNCC2)c1 [mCPP] | pKi: 5.60
